Reported solubility by item:
Assay: Solubility test
Format: physicochemical
Conditions: aqueous buffer, thermodynamic from solid; 10 mmol/L glycine buffer (pH 2.0), 5° C., overnight; read-out: Solubility in pH 2.0 buffer

smiles.string	solubility
O=C1N[C@]2(C[C@@H](F)c3cc(-c4cnn(C5CCN(C6COC6)CC5)c4)ccc32)C(=O)N1CC(=O)N(Cc1ccc(F)cn1)C1(C(F)(F)F)COC1	> 10000 µg/mL
CN1CC(N(Cc2ccc(F)cn2)C(=O)CN2C(=O)N[C@]3(C[C@@H](F)c4cc(-c5cnn(C6COC6)c5)ccc43)C2=O)(C(F)(F)F)C1	> 10000 µg/mL
CN1CC(N(Cc2ccc(F)cc2)C(=O)CN2C(=O)N[C@]3(C[C@@H](F)c4cc(-c5cnn(C)c5)ccc43)C2=O)(C(F)(F)F)C1	> 10000 µg/mL

###

Target: recombinant p300 (Homo sapiens (Human), UniProt Q09472)
Sequence (Q09472 whole entry): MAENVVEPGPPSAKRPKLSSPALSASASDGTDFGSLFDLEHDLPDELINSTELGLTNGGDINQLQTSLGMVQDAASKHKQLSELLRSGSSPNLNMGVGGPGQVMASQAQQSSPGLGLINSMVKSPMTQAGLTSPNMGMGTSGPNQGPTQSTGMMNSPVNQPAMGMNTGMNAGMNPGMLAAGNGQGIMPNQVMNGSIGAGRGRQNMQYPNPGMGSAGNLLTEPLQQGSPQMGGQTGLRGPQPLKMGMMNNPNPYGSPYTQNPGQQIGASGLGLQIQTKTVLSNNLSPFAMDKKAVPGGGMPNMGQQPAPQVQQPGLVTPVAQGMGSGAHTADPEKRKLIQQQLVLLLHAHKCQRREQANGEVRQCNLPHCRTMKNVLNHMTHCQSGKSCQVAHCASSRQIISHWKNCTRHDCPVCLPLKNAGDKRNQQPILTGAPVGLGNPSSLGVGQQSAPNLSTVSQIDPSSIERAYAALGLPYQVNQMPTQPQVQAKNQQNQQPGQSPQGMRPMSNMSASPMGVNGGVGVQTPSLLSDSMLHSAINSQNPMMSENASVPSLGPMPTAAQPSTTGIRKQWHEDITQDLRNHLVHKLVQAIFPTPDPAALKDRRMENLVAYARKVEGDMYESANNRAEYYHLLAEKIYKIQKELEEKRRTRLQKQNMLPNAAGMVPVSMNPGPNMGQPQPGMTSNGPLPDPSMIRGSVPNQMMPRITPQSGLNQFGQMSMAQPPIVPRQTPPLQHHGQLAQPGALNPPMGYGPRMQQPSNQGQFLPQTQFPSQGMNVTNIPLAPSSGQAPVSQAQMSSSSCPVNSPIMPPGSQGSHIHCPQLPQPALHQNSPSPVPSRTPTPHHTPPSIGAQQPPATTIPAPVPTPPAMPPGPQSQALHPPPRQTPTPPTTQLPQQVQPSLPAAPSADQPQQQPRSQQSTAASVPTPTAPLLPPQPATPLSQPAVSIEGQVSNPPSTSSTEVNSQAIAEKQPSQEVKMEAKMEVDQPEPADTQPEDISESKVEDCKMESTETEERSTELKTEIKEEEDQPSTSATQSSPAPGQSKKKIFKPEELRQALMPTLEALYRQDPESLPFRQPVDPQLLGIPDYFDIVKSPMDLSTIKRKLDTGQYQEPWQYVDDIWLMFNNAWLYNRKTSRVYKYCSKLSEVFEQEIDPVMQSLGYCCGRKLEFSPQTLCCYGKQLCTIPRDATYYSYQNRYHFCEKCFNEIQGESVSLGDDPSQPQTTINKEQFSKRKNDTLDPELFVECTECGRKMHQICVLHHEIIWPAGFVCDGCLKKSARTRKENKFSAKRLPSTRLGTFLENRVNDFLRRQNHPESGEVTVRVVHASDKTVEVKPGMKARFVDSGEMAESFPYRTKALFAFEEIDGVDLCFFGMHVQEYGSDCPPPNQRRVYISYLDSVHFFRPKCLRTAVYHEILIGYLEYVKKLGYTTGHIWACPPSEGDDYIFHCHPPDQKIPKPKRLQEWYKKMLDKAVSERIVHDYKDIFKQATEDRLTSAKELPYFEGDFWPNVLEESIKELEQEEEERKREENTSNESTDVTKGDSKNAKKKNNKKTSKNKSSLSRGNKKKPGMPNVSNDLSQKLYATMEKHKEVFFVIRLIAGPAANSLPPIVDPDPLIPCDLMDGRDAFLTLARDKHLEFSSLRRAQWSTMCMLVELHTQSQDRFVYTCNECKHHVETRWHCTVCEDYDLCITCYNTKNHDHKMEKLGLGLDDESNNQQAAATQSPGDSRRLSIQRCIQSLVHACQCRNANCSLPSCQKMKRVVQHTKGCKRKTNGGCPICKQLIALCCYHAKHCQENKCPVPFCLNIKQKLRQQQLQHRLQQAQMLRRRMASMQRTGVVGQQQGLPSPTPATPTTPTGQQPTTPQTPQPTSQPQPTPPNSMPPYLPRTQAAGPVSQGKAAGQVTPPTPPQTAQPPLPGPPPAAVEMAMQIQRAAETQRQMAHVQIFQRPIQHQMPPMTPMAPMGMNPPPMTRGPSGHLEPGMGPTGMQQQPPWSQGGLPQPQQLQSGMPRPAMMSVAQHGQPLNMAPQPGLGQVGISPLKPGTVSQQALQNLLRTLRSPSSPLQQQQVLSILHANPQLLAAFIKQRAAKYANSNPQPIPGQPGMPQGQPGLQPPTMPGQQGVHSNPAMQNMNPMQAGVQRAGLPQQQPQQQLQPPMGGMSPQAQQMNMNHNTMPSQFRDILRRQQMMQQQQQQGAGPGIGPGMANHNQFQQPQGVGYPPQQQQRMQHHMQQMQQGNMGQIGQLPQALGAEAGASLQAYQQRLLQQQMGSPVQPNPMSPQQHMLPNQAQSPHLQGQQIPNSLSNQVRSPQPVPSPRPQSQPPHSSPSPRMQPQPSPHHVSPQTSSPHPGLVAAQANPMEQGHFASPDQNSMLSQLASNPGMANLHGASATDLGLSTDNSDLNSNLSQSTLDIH
Assay: HAT activity inhibition experiment (SensoLyte HAT(p300) Assay Kit)
Conditions: recombinant p300, histone H3 peptide, acetyl CoA
quantity: IC50 (nM)

compound	units	val
CN1CC(N(Cc2ccc(F)cc2)C(=O)CN2C(=O)N[C@]3(C[C@@H](F)c4cc(-c5cn(C)nc5F)ccc43)C2=O)(C(F)(F)F)C1 [Example 17]	nM	2.3
CN1CC(N(Cc2ccc(F)cc2)C(=O)CN2C(=O)N[C@]3(C[C@@H](F)c4cc(-c5cnn(C6CCOCC6)c5)ccc43)C2=O)(C(F)(F)F)C1 [Example 19]	nM	7.2
CCn1cc(-c2ccc3c(c2)[C@H](F)C[C@]32NC(=O)N(CC(=O)N(Cc3ccc(F)cn3)C3(C(F)(F)F)CN(C)C3)C2=O)cn1 [Example 32]	nM	0.4
CN1CC(N(Cc2ccc(F)cn2)C(=O)CN2C(=O)N[C@]3(C[C@@H](F)c4cc(-c5cnn(C(C)(C)CO)c5)ccc43)C2=O)(C(F)(F)F)C1 [Example 27]	nM	6.8
CN1CC(N(Cc2ccc(F)cn2)C(=O)CN2C(=O)N[C@]3(CCc4cc(-c5cnn(C)c5)ccc43)C2=O)(C(F)(F)F)C1 [Example 21]	nM	52
CN1CC(N(Cc2ccc(F)cn2)C(=O)CN2C(=O)N[C@]3(C[C@@H](F)c4cc(-c5cnn(CC6COC6)c5)ccc43)C2=O)(C(F)(F)F)C1 [Example 25]	nM	5.7
O=C1N[C@]2(CCc3cc(-c4cnn(C5CN(C6COC6)C5)c4)ccc32)C(=O)N1CC(=O)N(Cc1ccc(F)cn1)C1(C(F)(F)F)COC1 [Example 6]	nM	19.8

###

Experiment: Pharmacokinetic study in mice
Type: in vivo
Details: female, BALB/c (BALB/cAnN CrlCrlj), mouse, plasma, intravenous, 1 mg/kg

molecule	units	clearance
CN1CC(N(Cc2ccc(F)cc2)C(=O)CN2C(=O)N[C@]3(CCc4cc(-c5cnn(C)c5)ccc43)C2=O)(C(F)(F)F)C1 [Example 12]	mL/min/kg	35.7
CN1CC(N(Cc2ccc(F)cc2)C(=O)CN2C(=O)N[C@]3(C[C@@H](F)c4cc(-c5cnn(C)c5)ccc43)C2=O)(C(F)(F)F)C1 [Example 10]	mL/min/kg	33.5
CN1CC(N(Cc2ccc(F)cn2)C(=O)CN2C(=O)N[C@]3(C[C@@H](F)c4cc(-c5cnn(C6COC6)c5)ccc43)C2=O)(C(F)(F)F)C1 [Example 24]	mL/min/kg	53
CN1CC(N(Cc2ccc(F)cc2)C(=O)CN2C(=O)N[C@]3(C[C@@H](F)c4cc(-c5cnn(C(C)(C)C#N)c5)ccc43)C2=O)(C(F)(F)F)C1 [Example 11]	mL/min/kg	33.7

###

Assay: Solubility test
Assay type: physicochemical
Settings: aqueous buffer, thermodynamic from solid; 10 mmol/L citrate buffer (pH 3.0), 5° C., overnight; read-out: Solubility in pH 3.0 buffer
quantity: solubility

smiles.string	quantity	val
CN1CC(N(Cc2ccc(F)cn2)C(=O)CN2C(=O)N[C@]3(C[C@@H](F)c4cc(-c5cnn(C6COC6)c5)ccc43)C2=O)(C(F)(F)F)C1	solubility	> 10000 µg/mL
CCn1cc(-c2ccc3c(c2)[C@H](F)C[C@]32NC(=O)N(CC(=O)N(Cc3ccc(F)cn3)C3(C(F)(F)F)CN(C)C3)C2=O)cn1	solubility	> 10000 µg/mL
CN1CC(N(Cc2ccc(F)cc2)C(=O)CN2C(=O)N[C@]3(C[C@@H](F)c4cc(-c5cnn(C)c5)ccc43)C2=O)(C(F)(F)F)C1	solubility	1600 µg/mL

###

Tested on: Kuramochi cells
Experiment: Cell proliferation inhibition experiment using Kuramochi cells
Type: cell-based
Details: 144 h, cultured for 6 days, CellTiter-Glo
pIC50: −log10 of the molar value.
Cut-off 7 on pIC50, inclusive. At or above means YES; below means NO.

smiles.string	classification
CN1CC(N(Cc2ccc(F)cc2)C(=O)CN2C(=O)N[C@]3(C[C@@H](F)c4cc(-c5cnn(C(C)(C)C#N)c5)ccc43)C2=O)(C(F)(F)F)C1	YES
CCn1cc(-c2ccc3c(c2)[C@H](F)C[C@]32NC(=O)N(CC(=O)N(Cc3ccc(F)cn3)C3(C(F)(F)F)CN(C)C3)C2=O)cn1	YES
O=C1N[C@]2(C[C@@H](F)c3cc(-c4cnn(C5CN(C6COC6)C5)c4)ccc32)C(=O)N1CC(=O)N(Cc1ccc(F)cn1)C1(C(F)(F)F)CC(F)(F)C1	NO
O=C1N[C@]2(C[C@@H](F)c3cc(-c4cnn(C5CN(C6COC6)C5)c4)ccc32)C(=O)N1CC(=O)N(Cc1ccc(F)cn1)C1(C(F)(F)F)COC1	NO
CN1CC(N(Cc2ccc(F)cn2)C(=O)CN2C(=O)N[C@]3(C[C@@H](F)c4cc(-c5cnn(C6CCC6)c5)ccc43)C2=O)(C(F)(F)F)C1	YES
CC(C)n1cc(-c2ccc3c(c2)[C@H](F)C[C@]32NC(=O)N(CC(=O)N(Cc3ccc(F)cc3)C3(C(F)(F)F)CN(C)C3)C2=O)cn1	YES
CN1CC(N(Cc2ccc(F)cn2)C(=O)CN2C(=O)N[C@]3(C[C@@H](F)c4cc(-c5cnn(CC6COC6)c5)ccc43)C2=O)(C(F)(F)F)C1	NO
CCn1cc(-c2ccc3c(c2)[C@H](F)C[C@]32NC(=O)N(CC(=O)N(Cc3ccc(F)cc3)C3(C(F)(F)F)CN(C)C3)C2=O)cn1	YES
O=C1N[C@]2(C[C@@H](F)c3cc(-c4cnn(C5CCN(C6COC6)CC5)c4)ccc32)C(=O)N1CC(=O)N(Cc1ccc(F)cn1)C1(C(F)(F)F)COC1	NO

###

Reported Papp at 4 h by item:
Assay: Membrane permeability test (PAMPA)
Format: in vitro ADME
Settings: pH 7.4, 37° C., read-out: pH 7.4 Pe

smiles.string	Papp at 4 h, ×10⁻⁶ cm/s
O=C1N[C@]2(C[C@@H](F)c3cc(-c4cnn(C5CN(C6COC6)C5)c4)ccc32)C(=O)N1CC(=O)N(Cc1ccc(F)cc1)C1(C(F)(F)F)CC(F)(F)C1	31.2
CN1CC(N(Cc2ccc(F)cn2)C(=O)CN2C(=O)N[C@]3(C[C@@H](F)c4cc(-c5cnn(C(C)(C)C#N)c5)ccc43)C2=O)(C(F)(F)F)C1	16.3
CN1CC(F)(Cn2cc(-c3ccc4c(c3)CC[C@]43NC(=O)N(CC(=O)N(Cc4ccc(F)cc4)C4(C(F)(F)F)COC4)C3=O)cn2)C1	19
O=C1N[C@]2(C[C@@H](F)c3cc(-c4cnn(C5CN(C6COC6)C5)c4)ccc32)C(=O)N1CC(=O)N(Cc1ccc(F)cn1)C1(C(F)(F)F)COC1	5.1
CCn1cc(-c2ccc3c(c2)[C@H](F)C[C@]32NC(=O)N(CC(=O)N(Cc3ccc(F)cc3)C3(C(F)(F)F)CN(C)C3)C2=O)cn1	35
CN(C)C1(Cn2cc(-c3ccc4c(c3)[C@H](F)C[C@]43NC(=O)N(CC(=O)N(Cc4ccc(F)cc4)C4(C(F)(F)F)COC4)C3=O)cn2)COC1	23
CN1CC(N(Cc2ccc(F)cc2)C(=O)CN2C(=O)N[C@]3(C[C@@H](F)c4cc(-c5cnn(C)c5)ccc43)C2=O)(C(F)(F)F)C1	28.6

###

Assay: Pharmacokinetic study in mice
Assay type: in vivo
Conditions: female, BALB/c (BALB/cAnN CrlCrlj), mouse, plasma, oral, 10 mg/kg
Reported AUC by item:

smiles.string	units	AUC
CN1CC(N(Cc2ccc(F)cn2)C(=O)CN2C(=O)N[C@]3(C[C@@H](F)c4cc(-c5cnn(CC6COC6)c5)ccc43)C2=O)(C(F)(F)F)C1	ng·h/mL	1310
CN1CC(N(Cc2ccc(F)cn2)C(=O)CN2C(=O)N[C@]3(C[C@@H](F)c4cc(-c5cnn(C)c5)ccc43)C2=O)(C(F)(F)F)C1	ng·h/mL	1520
CN1CC(N(Cc2ccc(F)cc2)C(=O)CN2C(=O)N[C@]3(C[C@@H](F)c4cc(-c5cnn(C)c5)ccc43)C2=O)(C(F)(F)F)C1	ng·h/mL	3480
